system: Vero-B; assay: MTT cytotoxicity assay, normal kidney cell line; type: cell-based, African green monkey; settings: Table 3; MTT, 48 hrs incubation; read-out: VERO-B (IC50% μM)
Measured Quantity: IC50 (µM)
Number only, in µM; omit the unit.

Ask | Find IC50 for N.N.[Cl][Pt][Cl] [Cisplatin, cis-diamineplatinum (II) dichloride, reference compound] on Vero-B and write it down.
Reply | 5

----------
Reported values of IC50 for individual entries
tested on: HepG2; assay: MTT cytotoxicity assay, hepatocellular carcinoma cells; type: cell-based, human; conditions: Homo sapiens, HepG2; MTT, 48 hrs incubation; read-out: HepG2 (IC50% μg/ml)
Number only, in µg/mL; omit the unit.

Sample answers from the record:
- Chemical String: "Cc1ccc(/C=C/C(=O)[C@H]2[C@H](c3ccc(C)cc3)[C@H]3CSCN3[C@]23C(=O)Nc2ccccc23)cc1"
  IC50 / µg/mL: 1.7
- Chemical String: "O=C(/C=C/c1ccc(F)cc1)[C@H]1[C@H](c2ccc(F)cc2)[C@H]2CSCN2[C@]12C(=O)Nc1ccc(Br)cc12"
  IC50 / µg/mL: 0.5
- Chemical String: "O=C(/C=C/c1ccc(Cl)cc1)[C@H]1[C@H](c2ccc(Cl)cc2)[C@H]2CSCN2[C@]12C(=O)Nc1ccccc12"
  IC50 / µg/mL: 1
- Chemical String: "O=C(/C=C/c1ccc(Br)cc1)[C@H]1[C@H](c2ccc(Br)cc2)[C@H]2CSCN2[C@]12C(=O)Nc1ccccc12"
  IC50 / µg/mL: 0.5

# ---- query compound ----
Ask | Give reported IC50 value for O=C(/C=C/c1ccc(C(F)(F)F)cc1)[C@H]1[C@H](c2ccc(C(F)(F)F)cc2)[C@H]2CSCN2[C@]12C(=O)Nc1ccccc12
Reply | 0.5
